Recorded values, source the RNAGym collection of RNA variant scans (doi:10.1021/acssynbio.7b00057).

B1: Pistol ribozyme (parent)
chain: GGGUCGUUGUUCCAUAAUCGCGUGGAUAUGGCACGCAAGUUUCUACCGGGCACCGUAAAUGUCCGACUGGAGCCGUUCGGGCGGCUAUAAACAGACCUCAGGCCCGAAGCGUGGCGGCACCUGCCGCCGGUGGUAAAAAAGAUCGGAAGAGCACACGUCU

Variants of: B1
test: aptazyme ON/OFF ratio, guanine; higher = stronger switching; co-transcriptional cleavage with and without guanine
valueKind: aptazyme ON/OFF ratio

Known results for variants:
| mutationLabel | aptazyme ON/OFF ratio |
| --- | --- |
| U7A U11C C12U | 1.43 |
| U7A U8A G9C U10A U11C C12U C13U | 1.11 |
| U7C U8G G9A U11C C13A | 1.04 |
| U7A G9A U10C U11A C12A C13G | 1.05 |
| U7A G9A U10A U11C C12G | 1.19 |
| U7C U8G G9C U11C C13A | 1.47 |
| U8C G9U U11A C12U C13G | 1.12 |
| U7C G9A U10C U11G C13U | 1.45 |
| U7G U8C G9C U11A C13G | 1.06 |
| U8G G9C U10C U11C C12G C13U | 1.08 |

Answer with the recorded aptazyme ON/OFF ratio for the variant listed here: U7C U8G G9A U10G U11C C12G C13A
1.2

Answer with the recorded aptazyme ON/OFF ratio for the variant listed here: U7G U8C U10G U11G C13G
1.26

Answer with the recorded aptazyme ON/OFF ratio for the variant listed here: U8A G9U C12U C13U
1.36
